system: Recombinant human ULK1 (1-649) (Homo sapiens (Human), UniProt O75385)
Sequence (O75385 1-649): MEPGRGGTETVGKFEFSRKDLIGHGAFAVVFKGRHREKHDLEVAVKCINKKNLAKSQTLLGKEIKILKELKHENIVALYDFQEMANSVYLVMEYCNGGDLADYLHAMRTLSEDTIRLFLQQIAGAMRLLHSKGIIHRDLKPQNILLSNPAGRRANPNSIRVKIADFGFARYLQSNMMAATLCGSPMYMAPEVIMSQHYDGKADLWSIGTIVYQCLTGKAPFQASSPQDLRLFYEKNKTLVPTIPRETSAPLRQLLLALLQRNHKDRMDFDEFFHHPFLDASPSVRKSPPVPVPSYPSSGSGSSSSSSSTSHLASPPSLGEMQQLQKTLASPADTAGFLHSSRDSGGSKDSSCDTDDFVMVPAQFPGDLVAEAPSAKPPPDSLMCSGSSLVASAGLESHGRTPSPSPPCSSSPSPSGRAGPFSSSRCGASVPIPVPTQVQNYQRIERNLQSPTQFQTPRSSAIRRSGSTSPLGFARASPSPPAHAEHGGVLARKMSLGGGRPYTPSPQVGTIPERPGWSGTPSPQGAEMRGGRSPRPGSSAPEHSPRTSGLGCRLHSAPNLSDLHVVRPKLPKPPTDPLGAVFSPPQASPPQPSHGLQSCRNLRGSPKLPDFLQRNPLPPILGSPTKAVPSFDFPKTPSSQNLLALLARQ
protocol.notes: ULK1 ADP Glo kinase activity assay, new method (ULKtide peptide substrate)
measurement.conditions: 25° C., 40 minutes, read-out: ULK1 biochemical IC50
pIC50: −log10 of the molar value.
measurement.kind: pIC50

smiles_record=CCc1cc2c(cc1Nc1ncc(C(F)(F)F)c(-c3cc4c(s3)C(=O)N(C3CC3)CCS4(=O)=O)n1)CCN(CC1COC1)C2 data_value="≥ 8.30"
smiles_record=CCN1CCc2cc(Nc3ncc(C(F)(F)F)c(-c4cc5c(s4)C(=O)N(CC)CCS5(=O)=O)n3)c(C3CC3)cc2C1 data_value="≥ 8.30"
smiles_record=CCc1cc2c(cc1Nc1ncc(C(F)(F)F)c(-c3cc4c(s3)C(=O)N(C3CC3)CCS4(=O)=O)n1)CCN(CC1CC1)C2 data_value="≥ 8.30"
smiles_record=C[C@@H]1CN(c2ccc(Nc3ncc(C(F)(F)F)c(-c4cc5c(s4)C(=O)N(C)CCS5(=O)=O)n3)c(C3CC3)c2)CCN1C data_value="≥ 8.30"

INPUT: Give a short answer stating reported pIC50 for CCc1cc(N2CCN(C(C)C)CC2)ccc1Nc1ncc(C(F)(F)F)c(-c2cc3c(s2)C(=O)N(C2CC2)CCS3(=O)=O)n1 .
OUTPUT: ≥ 8.30

INPUT: Give a short answer stating reported pIC50 for CN1CCS(=O)(=O)c2cc(-c3nc(Nc4cc5c(cc4Cl)CNC5)ncc3C(F)(F)F)sc2C1=O .
OUTPUT: ≥ 8.30

INPUT: Give a short answer stating reported pIC50 for CCc1cc(N2CCN(CC3CC3)CC2)ccc1Nc1ncc(C(F)(F)F)c(-c2cc3c(s2)C(=O)N(C2CC2)CCS3(=O)=O)n1 .
OUTPUT: ≥ 8.30

INPUT: Give a short answer stating reported pIC50 for O=C1c2sc(-c3nc(Nc4cc5c(cc4Cl)CNCC5)ncc3C(F)(F)F)cc2S(=O)(=O)CCN1C1COC1 .
OUTPUT: ≥ 8.30

INPUT: Give a short answer stating reported pIC50 for CCN1Cc2ccc(Nc3ncc(C(F)(F)F)c(-c4cc5c(s4)C(=O)N(C)CCS5(=O)=O)n3)c(C3CC3)c2C1 .
OUTPUT: 7.00 to 7.30

INPUT: Give a short answer stating reported pIC50 for Cc1nn(C2CCNCC2)cc1Nc1ncc(C(F)(F)F)c(-c2cc3c(s2)C(=O)NCCS3(=O)=O)n1 .
OUTPUT: < 7.00

INPUT: Give a short answer stating reported pIC50 for O=C1c2sc(-c3nc(Nc4cnc(N5CC6CC(C5)N6)cc4C4CC4)ncc3C(F)(F)F)cc2S(=O)(=O)CCN1C1COC1 .
OUTPUT: ≥ 8.30

INPUT: Give a short answer stating reported pIC50 for O=C1c2sc(-c3nc(Nc4cc5c(cc4C4CC4)CN(C4CC4)CC5)ncc3C(F)(F)F)cc2S(=O)(=O)CCN1C1COC1 .
OUTPUT: ≥ 8.30

INPUT: Give a short answer stating reported pIC50 for CCc1cc(N2CCN(CC3COC3)CC2)ccc1Nc1ncc(C(F)(F)F)c(-c2cc3c(s2)C(=O)N(C2CC2)CCS3(=O)=O)n1 .
OUTPUT: ≥ 8.30

---

system: Recombinant human ULK1 (1-649) (Homo sapiens (Human), UniProt O75385)
protocol.notes: ULK1 ADP Glo kinase activity assay (MBP substrate)
measurement.conditions: 25° C., 40 minutes, read-out: ULK1 biochemical IC50
Overview of recorded IC50 for various compounds

smiles_record=CS(=O)(=O)c1csc(-c2nc(Nc3cc4c(cc3F)CN(C3CC3)CC4)ncc2C(F)(F)F)c1 measurement_kind=IC50 data_value="10 to 50 nM"
smiles_record=Cc1sc(-c2nc(Nc3cc4c(cc3Cl)CNCC4)ncc2C(F)(F)F)cc1C(N)=O measurement_kind=IC50 data_value="≤ 10 nM"
smiles_record=COCCN1CCCc2sc(-c3nc(Nc4cc5c(cc4Cl)CNCC5)ncc3C(F)(F)F)cc2C1=O measurement_kind=IC50 data_value="10 to 50 nM"

Next compound, IC50 to be filled in.
INPUT: Param request: IC50 | system Recombinant human ULK1 (1-649) (Homo sapiens (Human), UniProt O75385) | item CS(=O)(=O)c1csc(-c2nc(Nc3cc4c(cc3Cl)CNCCC4)ncc2C(F)(F)F)c1
OUTPUT: ≤ 10 nM
